System: OVCAR-5
Protocol: NCI tumour cell line growth inhibition, 48 h
Activity calls are given as the source filed them. Rule as the data show it: active = GI50 up to about 1.1 µM and inactive = higher.
Quantity Kind: GI50

>>> reading("CN(C)c1ccc(C2CC(=O)CC(c3ccc(N(C)C)cc3)C23C(=O)NC(=O)NC3=O)cc1 (configuration not stated)")
"> 25 µM (inactive)"
>>> reading("CC(CC(=O)O)(CC(=O)O)c1ccccc1")
"> 100 µM (inactive)"
>>> reading("Nc1ncnc2c(C3OC(CO)C(O)C3O)c[nH]c12 (configuration not stated)")
"0.00804 µM (active)"
>>> reading("Cc1ccc(C(=O)NN=C(/N=N/c2cccc(C)c2)c2ccc(N(C)C)cc2)cc1")
"> 100 µM (inactive)"
>>> reading("CCOCC(=O)N[C@H]1CCc2cc(OC)c(OC)c(OC)c2-c2ccc(SC)c(=O)cc21")
"0.398 µM (active)"
>>> reading("NC(=O)/C=C/C(=O)O")
"> 5000 µM (inactive)"
>>> reading("COCCOCOc1ccc(OCOCCOC)c2c1C(=O)c1ccccc1C2=O")
"> 100 µM (inactive)"
>>> reading("COC(=O)c1ccc([N+](=O)[O-])c(O)c1")
"> 100 µM (inactive)"
>>> reading("CCc1ccccc1NC(=O)C(=O)C1C(=O)N(c2ccccc2)N=C1N (configuration not stated)")
"> 100 µM (inactive)"
>>> reading("COC(=O)/C=C1\\C(CO[Si](C)(C)C(C)(C)C)OC(n2cc(C)c(=O)n(C)c2=O)C1O[Si](C)(C)C(C)(C)C (configuration not stated)")
"> 100 µM (inactive)"
>>> reading("c1ccc2c(c1)NCc1cc3ccccc3nc1O2")
"> 100 µM (inactive)"
>>> reading("COC(=O)C(/C(=N/N)C(=O)Nc1cc(Cl)c(Cl)cc1Cl)c1nc2ccc(Cl)cc2nc1O (configuration not stated)")
"> 100 µM (inactive)"
>>> reading("Cc1cc2c(c3oc(C(O)(CO)C4CO4)cc(=O)c13)C(=O)c1c(O)cccc1C2=O (configuration not stated)")
"0.00229 µM (active)"
>>> reading("OC1C2CCC1C1C3C=CC(C3)C21 (configuration not stated)")
"63.4 µM (inactive)"
>>> reading("Clc1ccc2nc3c(c(-c4ccccc4)nn3-c3ccccc3)c(-c3ccccc3)c2c1")
"> 100 µM (inactive)"
>>> reading("O=C1C=C(Sc2ccccc2)c2nccc3c2c1nc1ccccc13")
"32.4 µM (inactive)"
>>> reading("CC1=CC(=O)/C(=C/N2CCNC2=S)C(=O)O1")
"> 100 µM (inactive)"
>>> reading("OCC(O)C(O)C(O)C(O)c1nc2cc(Cl)ccc2[nH]1 (configuration not stated)")
"> 100 µM (inactive)"
>>> reading("CN(C)c1ccc(/C=C(\\NC(=O)c2ccccc2)C(=O)Nc2cccc(C(=O)NCCCO)c2)cc1")
"> 100 µM (inactive)"
>>> reading("Cc1ccc(N2C(=O)C(Cl)=C(Cl)C2=O)cc1")
"18 µM (inactive)"
>>> reading("N#Cc1c(-c2ccccc2)c(C#N)c(=S)n(C2OCC(O)C(O)C2O)c1N (configuration not stated)")
"> 100 µM (inactive)"
>>> reading("COc1ccc(-c2ccccc2)c2[nH]c3c(c12)CCNC3=O")
"> 100 µM (inactive)"

====

// reported GI50 for each item listed
System: NCI-H23
Protocol: NCI tumour cell line growth inhibition, 48 h
Active and inactive are the calls of the source. Cut-off read from the data, not from the text of the source: active = GI50 up to about 1.1 µM and inactive = higher.
Quantity Kind: GI50

>>> reading("Cc1cccc2nc3cc(O)cc(O)c3c(O)c12")
"> 10 µM (inactive)"
>>> reading("CN1C(=O)C23CCCCC2CC1(c1ccccc1)S3 (stereo unspecified)")
"66.8 µM (inactive)"
>>> reading("O=C1OCC(c2ccc(Cl)cc2)=C1Cl")
"19.1 µM (inactive)"
>>> reading("Clc1ccc(SC(/C=C/NNC2=NN=C(c3ccccc3)C(c3ccccc3)N2)c2ccccc2)cc1 (stereo unspecified)")
"10.4 µM (inactive)"
>>> reading("Cc1ccc(NC(=O)/C(=N/N(C)C)C(C2OC(=O)c3ccccc32)[N+](=O)[O-])cc1 (stereo unspecified)")
"> 100 µM (inactive)"
>>> reading("CSc1nc(Br)nc2c1ncn2C1CC(Oc2ccc(C)cc2)C(COc2ccc(C)cc2)O1 (stereo unspecified)")
"40.8 µM (inactive)"
>>> reading("CN(C)CCCOc1nc2c(c(=O)n(C)c(=O)n2C)n1C.SC1=NC=NC2=NC=NC12")
"6.71 µM (inactive)"
>>> reading("O=P1(N(CCCl)CCCl)NCCCO1 (stereo unspecified) [CYCLOPHOSPHAMIDE ANHYDROUS]")
"> 235 µM (inactive)"
>>> reading("c1ccc2c(c1)NCc1cc3ccccc3nc1O2")
"> 100 µM (inactive)"
>>> reading("COC(=O)c1[nH]c(=S)[nH]c(=O)c1-c1ccc(Cl)cc1")
"> 50 µM (inactive)"
>>> reading("OC(O)(C(F)(F)F)C(F)(F)F")
"> 100 µM (inactive)"
>>> reading("O=C(O)C1C2C=CC(O2)C1C(=O)NCc1ccccn1 (stereo unspecified)")
"> 100 µM (inactive)"
>>> reading("CC(=O)Nc1ccc(/C=C(\\NC(=O)c2ccccc2)c2nc3ccc4c(c3[nH]2)C(=O)c2ccccc2C4=O)cc1")
"21.6 µM (inactive)"
>>> reading("COc1nc2c(c(=O)n1C)NC(C(O)C(O)CO)C=N2 (stereo unspecified)")
"> 10 µM (inactive)"
>>> reading("CC(=O)Nc1ccc(/C=C2/NC(=S)N(/C=C3\\C(=O)Oc4ccccc4C3=O)C2=O)cc1")
"67.3 µM (inactive)"
>>> reading("CC1C[C@]2(C)C(=O)N(c3ccccc3)C(=N)[C@@H]2N(C)c2ccccc21 (stereo partly specified)")
"> 100 µM (inactive)"
>>> reading("CC[C@]1(Cc2ccc(OC)c(OC)c2)C=[N+]([O-])O[C@H](OC2CCCC2(c2ccccc2)c2ccccc2)[C@@H]1OC(C)=O (stereo partly specified)")
"5.25 µM (inactive)"
>>> reading("N#Cc1c(-c2ccccc2)c(C#N)c(=S)n(C2OCC(O)C(O)C2O)c1N (stereo unspecified)")
"> 100 µM (inactive)"
>>> reading("Cc1cc(/N=C/c2ccc(N(C)C)cc2)n(-c2ccccc2)n1")
"51.2 µM (inactive)"
>>> reading("Clc1ccc2nc3c(c(-c4ccccc4)nn3-c3ccccc3)c(-c3ccccc3)c2c1")
"> 100 µM (inactive)"
>>> reading("O=C1C=C(Sc2ccccc2)c2nccc3c2c1nc1ccccc13")
"23.6 µM (inactive)"
